// reported Phage library screen NGS readout, BLANK per item
- experimental target: RNF31 PUB domain (Homo sapiens)
- Construct: MBP-TEV (N, cleaved yes); made in house; host or cells: E. coli BL21 (DE3) pLysS
- Sequence (Q96EP0 1-179): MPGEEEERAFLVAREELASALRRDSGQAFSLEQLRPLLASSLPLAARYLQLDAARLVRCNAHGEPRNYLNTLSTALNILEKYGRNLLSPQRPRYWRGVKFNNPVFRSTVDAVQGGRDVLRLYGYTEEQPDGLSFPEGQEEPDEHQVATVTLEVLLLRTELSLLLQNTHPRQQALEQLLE
- protocol summary: Phage Library Screening with NGS, RNF31 PUB domain
- Type: binding
- stated conditions: clusters C41-C45; BLANK screen, column 2 of 5
Ends that are not written are not given here.
attribute measured: Phage library screen NGS readout, BLANK

1. DPAMIDCFLAAQVCATY (not fully specified; cysteine pairing not given here) :: 0
2. DPAWQECVIAALVCDTY :: 0
3. DPANFTCRVAADVCSTY :: 0
4. DPAYDYCLYAAQDCVWW :: 0
5. DPADWDCMYAAQDCFED :: 0
6. DPAYDYCLYAAYDCTQT :: 0
7. DPATWWCLYAAEDCVNI :: 0
8. DPAWNDCLYAAETCISW :: 1
9. DPAHANCQLAADVCSTY :: 0
10. DPAWMQCMYAAWDCNIE :: 0
11. DPAQEACWDAAIMCTYR :: 0
12. DPAMQECMDAAIMCTYA :: 2
13. DPAWWNCLYAANTCVED :: 2
14. DPAHDWCLYAAYDCRVY :: 0
15. DPAWMDCLYAAYDCQHM :: 1
16. DPAEQFCLYAAYDCYSE :: 3
17. DPAFWECMYAASDCDAS :: 0
18. DPALVTCTWAAIYCDDF :: 1
19. DPAEWDCLYAAFDCFAN :: 0
20. DPAEDECQDAAILCSYN :: 0
21. DPAWWNCLYAADECWSW :: 0
22. DPAWDYCMYAAYDCNHS :: 1
23. DPAAWECHIAAFVCSTY :: 0
24. DPALRDCLDAAIMCTYT :: 0
25. DPAWWSCMYAAWTCDDT :: 2
26. DPAFDWCLYAADDCAET :: 0
27. DPASHMCLEAAVMCTYD :: 0
28. DPAMQDCQLAALVCTTY :: 0
29. DPAAEDCHIAAMVCMTY :: 0
30. DPAYYTCDWAAIYCDYH :: 1
31. DPAIYQCSLAADICSTY :: 2
32. DPAIQECLLAAATCWTY :: 0
33. DPALEDCQWAALYCDEY :: 1
34. DPAADDCEWAALYCSFH :: 9
35. DPAFTDCQLAAAVCMTY :: 2
36. DPAIDACYDAAVMCTYV :: 0
37. DPAQHECIYAAWDCDML :: 2
38. DPAQYQCWNAAMSCSYS :: 0
39. DPALDYCLYAAYDCMYA :: 3
40. DPAYSSCSWAAIYCNWT :: 1
41. DPAADQCDIAAFVCSTY :: 0
42. DPAFAQCEVAAMVCTTY :: 0
43. DPAYWDCLYAAWSCDIL :: 1
44. DPAIAQCMLAAQVCSTY :: 0
45. DPAFQFCVEAAVACSYY :: 0
46. DPAYRDCDWAALYCDDF :: 3
47. DPAWTQCDWAALYCEDQ :: 0
48. DPAQDQCISAAVLCTYT :: 0
49. DPAYEDCADAAMYCDMD :: 0
50. DPAIWECVSAAAVCMTY :: 0
51. DPAYDWCMYAAHECVDQ :: 0
52. DPAFMDCVFAAAVCATY :: 1
53. DPAQYQCDIAAQVCSTY :: 0
54. DPAWTDCDWAALYCEFQ :: 0
55. DPALSHCTVAAMVCSTY :: 0
56. DPAWEHCLYAAYDCTHE :: 4
57. DPAHTWCMYAAFDCFES :: 2
58. DPAWESCMYAAYDCDNE :: 0
59. DPAWWDCMYAASHCDTV :: 0
60. DPAYDWCMYAAYNCVED :: 0
61. DPASEWCLDAAVLCTYS :: 0
62. DPAWEWCLYAAAECIED :: 0
63. DPAYEDCAWAALYCDMT :: 0

Attribution: patent US20240376151A1
